Across several studies, compounds have been characterized by their IC50 on Type-1 angiotensin II receptor (Bos taurus, UniProt P25104); a selection follows.
Sequence (P25104 whole entry): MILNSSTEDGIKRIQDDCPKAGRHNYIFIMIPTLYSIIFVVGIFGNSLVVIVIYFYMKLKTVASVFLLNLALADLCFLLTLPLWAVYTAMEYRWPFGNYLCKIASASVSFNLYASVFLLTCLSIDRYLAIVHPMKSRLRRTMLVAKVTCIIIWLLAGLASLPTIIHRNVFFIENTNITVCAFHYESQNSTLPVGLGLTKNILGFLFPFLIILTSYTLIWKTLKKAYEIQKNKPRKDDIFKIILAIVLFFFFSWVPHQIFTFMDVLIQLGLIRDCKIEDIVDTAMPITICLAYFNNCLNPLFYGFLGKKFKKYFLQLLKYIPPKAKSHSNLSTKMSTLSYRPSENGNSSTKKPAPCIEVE
Consider the cut-off 100 nM. If the recorded IC50 is strictly smaller, the label is Y; if not, the label is N.

Consider CCCCc1nc2ccc([C@@]3(C)NN[C@@H]4C(=O)N(C)C(=O)[C@@H]43)cc2c(=O)n1Cc1ccc(-c2ccccc2-c2nnn[nH]2)cc1 (relative stereo) . Does its IC50 lie strictly below 100 nM?
N

Moving on to the next compound: CCCCc1nc2ccc(C(O)CC3CCCN3)cc2c(=O)n1Cc1ccc(-c2ccccc2-c2nnn[nH]2)cc1 (racemic)
Y

Moving on to the next compound: CCCCc1nc2ccc(C3CC(c4ccc(C)s4)=NO3)cc2c(=O)n1Cc1ccc(-c2ccccc2-c2nnn[nH]2)cc1 (stereo not shown)
N

Moving on to the next compound: CCCCc1nc2ccc(C(O)C3CCCS3(=O)=O)cc2c(=O)n1Cc1ccc(-c2ccccc2-c2nn[nH]n2)cc1 (single isomer, unassigned; isomer 1)
N

Moving on to the next compound: `CCCCc1nc2c(Br)cnn2c(=O)n1Cc1ccc(-c2ccccc2-c2nn[nH]n2)cc1`
N

Moving on to the next compound: CCCCc1nc2ccc(C(O)C3CCCN(C)C3=O)cc2c(=O)n1Cc1ccc(-c2ccccc2-c2nn[nH]n2)cc1 (single isomer, unassigned; isomer 1)
Y

Moving on to the next compound: `CCCCc1nc2cc(-c3ccco3)nn2c(=O)n1Cc1ccc(-c2ccccc2-c2nnn[nH]2)cc1`
N

Moving on to the next compound: CCCCc1nc2ccc(C(O)C3CCCCN(C)C3=O)cc2c(=O)n1Cc1ccc(-c2ccccc2-c2nn[nH]n2)cc1 (single isomer, unassigned; isomer 1)
N

Moving on to the next compound: CCCCc1nc2ccc(C3=NN4CCCCC4C3)cc2c(=O)n1Cc1ccc(-c2ccccc2-c2nnn[nH]2)cc1 (stereo not shown)
Y

Moving on to the next compound: `CCCCc1nc2c(c(=O)n1Cc1ccc(-c3ccccc3-c3nn[nH]n3)cc1)CN(C(=O)c1cccnc1)CC2`
Y

Moving on to the next compound: CCCCc1nc2ccc(C3CC(c4ccc(C)cc4)=NO3)cc2c(=O)n1Cc1ccc(-c2ccccc2-c2nnn[nH]2)cc1 (stereo not shown)
Y

Moving on to the next compound: CCCCc1nc(Cl)c(C(=O)O)n1Cc1ccc(C(C(=O)N2CCC[C@H]2C(N)=O)C2CCCC2)cc1 (stereo partly shown)
N

Moving on to the next compound: CCCCc1nc2ccc(C(C)(O)C3CCN(C)C3=O)cc2c(=O)n1Cc1ccc(-c2ccccc2-c2nn[nH]n2)cc1 (single isomer, unassigned; isomer 2)
Y

Moving on to the next compound: CCCCc1nc2ccc([C@@H]3[C@H]4C(=O)CCC[C@H]4ON3C)cc2c(=O)n1Cc1ccc(-c2ccccc2-c2nnn[nH]2)cc1 (relative stereo)
N

Moving on to the next compound: `CCCCc1nc2cc(-c3ccc(F)cc3)nn2c(=O)n1Cc1ccc(-c2ccccc2-c2nnn[nH]2)cc1`
Y

Moving on to the next compound: CCCCc1nc2ccc(C(C)(O)CC3CCCN3)cc2c(=O)n1Cc1ccc(-c2ccccc2-c2nnn[nH]2)cc1 (stereo not shown)
Y

Moving on to the next compound: CCCCc1nc(Cl)c(C(=O)O)n1Cc1ccc(C(C(=O)N2CCC[C@H]2C(=O)OCc2ccccc2)C2CCCC2)cc1 (stereo partly shown)
N

Moving on to the next compound: CCCCc1nc2ccc([C@H]3[C@@H]4C(=O)OC[C@@H]4ON3C)cc2c(=O)n1Cc1ccc(-c2ccccc2-c2nnn[nH]2)cc1 (relative stereo)
Y

Moving on to the next compound: CCCCc1nc2ccc([C@@H]3[C@@H]4C(=O)OC[C@@H]4ON3C)cc2c(=O)n1Cc1ccc(-c2ccccc2-c2nnn[nH]2)cc1 (relative stereo)
N

Moving on to the next compound: `CCCCc1nc2ccc(COc3ccccc3)cc2c(=O)n1Cc1ccc(-c2ccccc2-c2nnn[nH]2)cc1`
N

Moving on to the next compound: CCCCc1nc2ccc(C(OC)C3CCCO3)cc2c(=O)n1Cc1ccc(-c2ccccc2-c2nn[nH]n2)cc1 (single isomer, unassigned; isomer 1)
Y

Moving on to the next compound: CCCCc1nc2ccc(C3(C)CC(C(=O)OCC)=NO3)cc2c(=O)n1Cc1ccc(-c2ccccc2-c2nnn[nH]2)cc1 (stereo not shown)
N

Moving on to the next compound: CCCCc1nc2ccc([C@H]3[C@@H]4C(=O)OC[C@@H]4ON3Cc3ccccc3)cc2c(=O)n1Cc1ccc(-c2ccccc2-c2nnn[nH]2)cc1 (relative stereo)
N

Moving on to the next compound: CCCCc1nc2ccc(C3CC4C(O3)ON3C4CCC3(C)C)cc2c(=O)n1Cc1ccc(-c2ccccc2-c2nnn[nH]2)cc1 (stereo not shown)
Y
